The values you see were collected from ChEMBL document CHEMBL1961873.

Assayed System: BDNF/NT-3 growth factors receptor (Homo sapiens);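 note: each value is a mean percent inhibition of TrkB kinase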
Condition Context: at 0.1 µM
Observable: inhibition (%)

{"Compound": "COc1ccc2cc(-c3c(-c4ccncc4)nc(-c4ccc(S(C)(=O)=O)cc4C)n3C)ccc2c1", "Assayed System": "BDNF/NT-3 growth factors receptor (Homo sapiens)", "Unit Abbreviation": "%", "Test Value": 2.95}
{"Compound": "COc1cccc(/C=N/Nc2ncnc3c2cnn3-c2cccc(OC)c2)c1", "Assayed System": "BDNF/NT-3 growth factors receptor (Homo sapiens)", "Unit Abbreviation": "%", "Test Value": 2.99}
{"Compound": "CCc1nccc2c1nc(-c1nonc1N)n2CC", "Assayed System": "BDNF/NT-3 growth factors receptor (Homo sapiens)", "Unit Abbreviation": "%", "Test Value": 3.6}
{"Compound": "COc1cc(Nc2ncc3c(C)nc(-c4cccc(Oc5ccccc5)c4)n3n2)cc(OC)c1OC", "Assayed System": "BDNF/NT-3 growth factors receptor (Homo sapiens)", "Unit Abbreviation": "%", "Test Value": 0.27}
{"Compound": "COc1cc(Nc2ncc(-c3ccccc3)o2)cc(OC)c1OC", "Assayed System": "BDNF/NT-3 growth factors receptor (Homo sapiens)", "Unit Abbreviation": "%", "Test Value": 2.41}
{"Compound": "COc1cc2ncn(-c3cc(OCc4ccccc4C(F)(F)F)c(C(C)=O)s3)c2cc1OC", "Assayed System": "BDNF/NT-3 growth factors receptor (Homo sapiens)", "Unit Abbreviation": "%", "Test Value": 1.74}
{"Compound": "CCN(CC)Cc1ccc(Nc2nccc(-c3cnn4ncccc34)n2)cc1", "Assayed System": "BDNF/NT-3 growth factors receptor (Homo sapiens)", "Unit Abbreviation": "%", "Test Value": 4.49}
{"Compound": "c1ccc(-c2n[nH]cc2-c2ccnc(-c3ccc(OCCN4CCOCC4)cc3)c2)nc1", "Assayed System": "BDNF/NT-3 growth factors receptor (Homo sapiens)", "Unit Abbreviation": "%", "Test Value": 0.05}
{"Compound": "O=C(Nc1n[nH]c2cc(-c3cc(F)ccc3F)ccc12)C1CC1", "Assayed System": "BDNF/NT-3 growth factors receptor (Homo sapiens)", "Unit Abbreviation": "%", "Test Value": 3.77}
{"Compound": "NS(=O)(=O)c1ccc(N/N=C2\\C(=O)Nc3ccc(C(=O)NCCCn4ccnc4)cc32)cc1", "Assayed System": "BDNF/NT-3 growth factors receptor (Homo sapiens)", "Unit Abbreviation": "%", "Test Value": 9.05}
{"Compound": "COc1ccc(-c2ccc3c(NC(=O)C4CC4)n[nH]c3n2)cc1", "Assayed System": "BDNF/NT-3 growth factors receptor (Homo sapiens)", "Unit Abbreviation": "%", "Test Value": 1.11}
{"Compound": "C#Cc1cccc(Nc2ncnc3ccc(OCCCCNCCS(C)(=O)=O)cc23)c1", "Assayed System": "BDNF/NT-3 growth factors receptor (Homo sapiens)", "Unit Abbreviation": "%", "Test Value": 3.91}
{"Compound": "COc1ccc2ncn(-c3cc(O[C@H](C)c4ccccc4Cl)c(C(N)=O)s3)c2c1", "Assayed System": "BDNF/NT-3 growth factors receptor (Homo sapiens)", "Unit Abbreviation": "%", "Test Value": 3.84}
{"Compound": "O=C(Nc1n[nH]c2nc(-c3ccc(O)cc3)c(Br)cc12)C1CC1", "Assayed System": "BDNF/NT-3 growth factors receptor (Homo sapiens)", "Unit Abbreviation": "%", "Test Value": 5.55}
{"Compound": "COc1cc2ncn(-c3cc(OCCc4ccccc4)c(C(N)=O)s3)c2cc1OC", "Assayed System": "BDNF/NT-3 growth factors receptor (Homo sapiens)", "Unit Abbreviation": "%", "Test Value": 1.14}
{"Compound": "Fc1ccc(-c2ncn(C3CCNCC3)c2-c2ccnc(Oc3ccc(F)c(F)c3)n2)cc1", "Assayed System": "BDNF/NT-3 growth factors receptor (Homo sapiens)", "Unit Abbreviation": "%", "Test Value": 3.23}
{"Compound": "CCc1ccc(Oc2nccc(-c3c(-c4ccc(F)cc4)ncn3C3CCNCC3)n2)cc1", "Assayed System": "BDNF/NT-3 growth factors receptor (Homo sapiens)", "Unit Abbreviation": "%", "Test Value": 1.6}
{"Compound": "CN(C)CCOc1ccc(-c2cc(-c3ccc4c(c3)CCC4=NO)c(-c3ccncc3)o2)cc1", "Assayed System": "BDNF/NT-3 growth factors receptor (Homo sapiens)", "Unit Abbreviation": "%", "Test Value": -0.06}
{"Compound": "Nc1nccc(-c2c(-c3ccc(F)cc3)ncn2C2CCC(O)CC2)n1 (centres undefined)", "Assayed System": "BDNF/NT-3 growth factors receptor (Homo sapiens)", "Unit Abbreviation": "%", "Test Value": 1.41}

---

# inhibition per entry
Assayed System: Casein kinase I isoform gamma-2 (Homo sapiens);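 note: values are mean inhibition figures reported as part of the GSK PKIS dataset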
Condition Context: at 0.1 µM

{"Compound": "COc1cc(Nc2ncc3c(C)nc(-c4cccc(C(F)(F)F)c4)n3n2)cc(OC)c1OC", "inhibition": "2.07%"}
{"Compound": "Fc1ccc(-c2ncn(C3CCNCC3)c2-c2ccnc(Oc3ccc4c(c3)OCO4)n2)cc1", "inhibition": "4.86%"}
{"Compound": "Cc1ccc(C(=O)NC2CCC2)cc1-c1ccc(C(=O)NCC2CC2)cc1", "inhibition": "1.72%"}
{"Compound": "CCc1cccc(CC)c1/C=C/c1cncc(C(=O)NC)c1", "inhibition": "1.49%"}
{"Compound": "C/C(Nc1ccc(S(N)(=O)=O)cc1)=C1/C(=O)Nc2ccccc21", "inhibition": "1.03%"}
{"Compound": "O=C(Nc1n[nH]c2nc(-c3ccc(O)cc3)c(Br)cc12)C1CC1", "inhibition": "4.14%"}
{"Compound": "CN(C)CCCNc1nccc(-c2c(-c3ccc(F)cc3)nn3cc(C(F)(F)F)ccc23)n1", "inhibition": "-3.5%"}
{"Compound": "C[C@@H](Oc1cc(-n2cnc3ccc(OC4CCN(C)CC4)cc32)sc1C(N)=O)c1ccccc1Cl", "inhibition": "0.26%"}
{"Compound": "COc1ccc2cc(-c3c(-c4ccncc4)nc(-c4ccc(S(C)(=O)=O)cc4C)n3C)ccc2c1", "inhibition": "2.92%"}
{"Compound": "c1ccc(Oc2ccc(Nc3ncc(-c4ccccc4)o3)cc2)cc1", "inhibition": "0.49%"}
{"Compound": "COc1cc(Nc2ncc3c(C)nc(-c4cccc(Oc5ccccc5)c4)n3n2)cc(OC)c1OC", "inhibition": "0.59%"}
{"Compound": "Fc1ccc(-c2ncn(C3CCNCC3)c2-c2ccnc(Oc3ccc(F)c(F)c3)n2)cc1", "inhibition": "-0.65%"}
{"Compound": "N#Cc1ccc(Oc2nccc(-c3c(-c4ccc(F)cc4)ncn3C3CCNCC3)n2)cc1", "inhibition": "3.52%"}
{"Compound": "CCS(=O)(=O)c1ccc(OC)c(Nc2ncc(-c3cccc(-c4ccccc4F)c3)o2)c1", "inhibition": "-0.86%"}
{"Compound": "O=C(Nc1n[nH]c2cc(-c3ccccc3)ccc12)C1CC1", "inhibition": "4.46%"}
{"Compound": "CN(C)c1ccc2c(c1)/C(=C/Nc1ccc(S(N)(=O)=O)cc1)C(=O)N2", "inhibition": "1.13%"}
{"Compound": "NS(=O)(=O)c1ccc(N/N=C2\\C(=O)Nc3ccc(C(=O)NCCCn4ccnc4)cc32)cc1", "inhibition": "4.43%"}
{"Compound": "c1ccc(-c2n[nH]cc2-c2ccnc(-c3ccc(OCCN4CCOCC4)cc3)c2)nc1", "inhibition": "-2.46%"}
{"Compound": "O=C1Nc2ccc(I)cc2C1=Cc1cc(Br)c(O)c(Br)c1", "inhibition": "3.7%"}
{"Compound": "COc1ccc2ncn(-c3cc(O[C@H](C)c4ccccc4Cl)c(C(N)=O)s3)c2c1", "inhibition": "-0.05%"}
{"Compound": "O=C(Nc1n[nH]c2cc(-c3cc(F)ccc3F)ccc12)C1CC1", "inhibition": "2.53%"}
{"Compound": "COc1cccc(/C=N/Nc2ncnc3c2cnn3-c2cccc(OC)c2)c1", "inhibition": "3.16%"}
{"Compound": "Cc1ccc(C(=O)NC(C)C)cc1-c1ccc(C(=O)NCC2CC2)cc1", "inhibition": "-2.65%"}
{"Compound": "Nc1nccc(-c2c(-c3ccc(F)cc3)ncn2C2CCC(O)CC2)n1 (stereo not given)", "inhibition": "-1.13%"}
{"Compound": "O=C1NC(=O)C(c2cccc(Cl)c2)=C1Nc1ccc(Cl)c(C(=O)O)c1", "inhibition": "2.25%"}

---

Tested on: Epidermal growth factor receptor (Homo sapiens), P00533 [L858R,T790M]
Sequence (P00533 whole entry T790M/L858R, looked up): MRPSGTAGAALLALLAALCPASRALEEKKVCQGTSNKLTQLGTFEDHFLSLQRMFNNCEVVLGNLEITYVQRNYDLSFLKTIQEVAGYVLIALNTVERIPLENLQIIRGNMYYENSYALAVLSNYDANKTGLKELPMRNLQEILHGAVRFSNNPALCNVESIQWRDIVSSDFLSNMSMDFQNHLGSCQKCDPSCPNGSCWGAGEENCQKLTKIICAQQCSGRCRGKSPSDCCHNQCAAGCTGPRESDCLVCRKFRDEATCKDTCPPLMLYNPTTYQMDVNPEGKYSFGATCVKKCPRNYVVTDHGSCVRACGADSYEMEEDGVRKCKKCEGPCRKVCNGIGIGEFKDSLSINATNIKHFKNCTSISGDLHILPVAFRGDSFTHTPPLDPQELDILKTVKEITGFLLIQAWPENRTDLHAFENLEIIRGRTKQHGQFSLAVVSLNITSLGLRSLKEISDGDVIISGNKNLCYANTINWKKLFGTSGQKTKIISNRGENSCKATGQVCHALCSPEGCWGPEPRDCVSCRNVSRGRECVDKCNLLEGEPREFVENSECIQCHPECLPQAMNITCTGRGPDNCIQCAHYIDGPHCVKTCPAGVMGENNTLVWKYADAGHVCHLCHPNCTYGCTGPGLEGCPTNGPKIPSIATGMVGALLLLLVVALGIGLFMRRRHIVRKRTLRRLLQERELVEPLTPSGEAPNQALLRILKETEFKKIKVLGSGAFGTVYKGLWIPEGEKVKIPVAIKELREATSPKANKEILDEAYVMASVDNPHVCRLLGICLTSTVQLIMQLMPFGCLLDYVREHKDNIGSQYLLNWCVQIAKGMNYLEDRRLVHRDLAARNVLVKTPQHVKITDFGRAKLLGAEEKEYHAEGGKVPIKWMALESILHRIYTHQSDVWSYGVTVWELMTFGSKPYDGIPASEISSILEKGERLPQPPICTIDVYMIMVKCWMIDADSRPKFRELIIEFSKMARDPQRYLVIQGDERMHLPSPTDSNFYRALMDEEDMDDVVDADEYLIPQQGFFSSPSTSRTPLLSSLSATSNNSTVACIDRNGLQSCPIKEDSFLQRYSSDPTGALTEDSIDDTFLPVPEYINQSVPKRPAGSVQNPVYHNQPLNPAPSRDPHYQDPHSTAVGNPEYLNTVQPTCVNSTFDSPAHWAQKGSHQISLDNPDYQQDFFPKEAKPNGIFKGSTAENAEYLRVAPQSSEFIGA
Condition Context: at 0.1 µM

{"Compound": "NC(=O)Cc1ccccc1Oc1nccc(-c2c(-c3ccc(F)cc3)ncn2C2CCNCC2)n1", "inhibition, %": 0.76}
{"Compound": "Fc1ccc(-c2ncn(C3CCNCC3)c2-c2ccnc(Oc3ccc(Oc4ccccc4)cc3)n2)cc1", "inhibition, %": 1.7}
{"Compound": "COc1ccc2cc(-c3c(-c4ccncc4)nc(-c4ccc([S+](C)[O-])cc4C)n3C)ccc2c1 (stereo not drawn)", "inhibition, %": -3}
